Hey, just so you know, these numbers are from patent US12077503B2.

Tested on: blackgrass (Alopecurus myosuroides)
Method: Test A postemergence
Format: in vivo
Condition Summary: Alopecurus myosuroides, post-emergence, 240 h, 500 g ai/ha, postemergence; 0 to 100 scale, 0 is no effect, 100 is complete control; read-out: Blackgrass plant response rating
Known pest or weed control at 500 g/ha of a selection of compounds
Attribute Measured: pest or weed control at 500 g/ha (%)

1. Cc1c(F)cccc1NC(=O)[C@H]1C(=O)N(C)C[C@@H]1c1ccc(OC(F)F)cc1: 40
2. CN1C[C@H](c2csc(C(F)F)c2)[C@@H](C(=O)Nc2cccc(F)c2F)C1=O: 60
3. O=C1NC[C@H](c2cc(C(F)F)cs2)[C@H]1C(=O)Nc1cccc(F)c1F: 40
4. CN1C[C@H](c2ccc(C(F)(F)F)cc2)[C@@H](C(=O)Nc2cccc(Cl)c2F)C1=O: 50
5. N#Cc1cc([C@H]2CNC(=O)[C@]2(O)C(=O)Nc2ccccc2F)ccc1F: 0
6. Cc1c(F)cccc1NC(=O)[C@H]1C(=O)N(C)C[C@@H]1c1ccc(F)c(Br)c1: 40
7. CSc1ccccc1NC(=O)[C@H]1C(=O)N(C)C[C@@H]1c1cccc(C)c1: 40
8. Cc1ccc([C@H]2CCN(C)C(=O)[C@@H]2C(=O)Nc2cccc(F)c2F)cc1: 40

----------
System: blackgrass (Alopecurus myosuroides)
Method: Test A postemergence
Type: in vivo
Condition Summary: Postemergence, 125 g ai/ha; visual injury, 0 to 100 scale (0 no effect, 100 complete control), approx. 10 d
Measured Plant response rating, Blackgrass accompanies every entry in the list below.
Attribute Measured: Plant response rating, Blackgrass

1) CCCOc1cccc(C2CNC(=O)C2C(=O)Nc2cccc(F)c2F)c1 (racemic) [Compound 380]: 30
2) Cc1ccc(C2CNC(=O)C2C(=O)Nc2cccc(F)c2F)cc1F (racemic) [Compound 369]: 30
3) O=C1NCC(c2cccc(OC(F)(F)C(F)F)c2)C1C(=O)Nc1ccccc1C(F)F (stereo not drawn) [Compound 391]: 50
4) O=C1NCC(c2cccc(OCC(F)F)c2)C1C(=O)Nc1ccccc1F (racemic) [Compound 387]: 0
5) Cc1ccc(C2CNC(=O)C2C(=O)Nc2ccccc2F)cc1F (racemic) [Compound 368]: 0
6) Cc1cccc(C2CNC(=O)C2C(=O)Nc2cccc(F)c2F)c1 (racemic) [Compound 373]: 20

----------
Tested on: pigweed (Amaranthus retroflexus)
Method: Test A preemergence
Assay type: in vivo
Condition Summary: Amaranthus retroflexus, pre-emergence, 240 h, 125 g ai/ha, preemergence; visual rating after approx. 10 d; 0 to 100 scale where 0 is no effect and 100 is complete control; read-out: Plant response rating, Pigweed
Catalogue of pest or weed control at 125 g/ha readings, one per entry.
Attribute Measured: pest or weed control at 125 g/ha

1. CSc1ccccc1NC(=O)[C@H]1C(=O)N(C)C[C@@H]1c1ccc(C)c(C)c1 [Compound 733]: 20%
2. CS(=O)(=O)c1ccccc1NC(=O)[C@H]1C(=O)NC[C@@H]1c1ccc(OC(F)F)cc1 [Compound 787]: 50%
3. CN1CC[C@@H](c2cccc(C(F)(F)F)c2)[C@H](C(=O)Nc2ccccc2F)C1=O [Compound 794]: 0%
4. Cc1ccc([C@H]2CNC(=O)[C@@H]2C(=O)Nc2cccc(F)c2F)c(F)c1 [Compound 720]: 0%
5. Cc1ccc([C@H]2CNC(=O)[C@@H]2C(=O)Nc2cccc(F)c2F)s1 [Compound 729]: 0%
6. Cc1cc([C@H]2CNC(=O)[C@@H]2C(=O)Nc2ccccc2F)ccc1F [Compound 717]: 0%
